Each recorded value in this set is attributed to PubChem BioAssay (NCI).

Test system: SN12C renal
Assay: NCI tumour cell line growth inhibition, 48 h
ENDPOINT_NAME: GI50

Example cases with answers are listed next.
- COMPOUND: "CC(=O)[CH-]C(=O)c1ccccc1.CC(=O)[CH-]C(=O)c1ccccc1.CC[C@H](/C=C/C(C)[C@H]1CCC2[C@@H]3CC=C4C[C@@H]([O-])CC[C@]4(C)C3CC[C@@]21C)C(C)C.CC[O-].[Ti+4] (some centres undefined)"
  TARGET: "SN12C renal"
  GI50: "> 100 µM"
- COMPOUND: "Cc1ccc(/C=C/C(=N/N=C(N)N)c2ccccc2)cc1"
  TARGET: "SN12C renal"
  GI50: "4.5 µM"
- COMPOUND: "CCN(Cc1ccccc1Cl)c1ccc(CO)c(Cl)c1"
  TARGET: "SN12C renal"
  GI50: "11.5 µM"
- COMPOUND: "CCCCCCCCCCCCCCCC(=O)N[C@H](/C=C/[C@H](O)CCCCCCCCCCCCC)CO"
  TARGET: "SN12C renal"
  GI50: "> 100 µM"
- COMPOUND: "CC1=C(C(=O)Nc2ccc3[nH]ncc3c2)C(c2ccc(Cl)c(Cl)c2)CC(=O)N1 (centres undefined)"
  TARGET: "SN12C renal"
  GI50: "> 25 µM"

Record lookup: for SN12C renal, what GI50 belongs to C=C(C)C1CC=C(C)CC1 (centres undefined) ? > 100 µM

Can you handle `C/C(=N\NC(=S)N1CCN(C2CCCCCC2)CC1)c1ccccn1` next? 2.02 µM

Can you handle `C[N+](C)(CCCCCC[N+](C)(C)CCCN1C(=O)c2cc3ccccc3cc2C1=O)CCCN1C(=O)c2cc3ccccc3cc2C1=O` next? > 37.5 µM

Can you handle CCCCCCC/C=C/[C@H]1O[C@]2(O)C(=O)C=C3C[C@@H](O[C@@H]4O[C@H](CO)[C@@H](O)C(O)[C@@H]4O)C[C@@H]3[C@H]2C=C1C (some centres undefined) next? 2.8 µM
